# target_system: T1, TCV P38 (capsid protein, VSR) wild type (Turnip crinkle virus (pTCV cDNA), UniProt P06663 1-351)
# T1 sequence: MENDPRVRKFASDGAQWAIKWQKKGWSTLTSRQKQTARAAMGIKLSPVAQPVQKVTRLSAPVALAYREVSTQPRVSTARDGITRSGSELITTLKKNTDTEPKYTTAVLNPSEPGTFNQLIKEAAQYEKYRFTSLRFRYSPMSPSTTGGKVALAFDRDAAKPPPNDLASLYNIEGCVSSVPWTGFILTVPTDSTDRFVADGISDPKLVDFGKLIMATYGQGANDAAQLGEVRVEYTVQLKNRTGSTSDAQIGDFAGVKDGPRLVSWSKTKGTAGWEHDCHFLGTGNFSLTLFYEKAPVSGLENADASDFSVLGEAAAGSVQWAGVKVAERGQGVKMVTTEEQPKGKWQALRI
# procedure_details: EMSA
recorded_endpoint: Kd (nM)
Please respond with the number in nM and leave the unit unwritten.

For the binder dsRNA_33 (dsRNA, 5'-phosphate) RNA 1: CUAAGAUGCUCGCUGCCAAUGAACGACCCUCCCUAA RNA 2: UUAGGGAGGGUCGUUCAUUGGCAGCGAGCAUCU , what Kd is on record?
0.77
